# assay.protocol: Plasma and inner ear fluid exposure after single trans-tympanic injection in thermoreversible hydrogel composition (Example 4)
# Type: in vivo, male Wistar rats
# applied.conditions: male, Wistar, plasma, other: trans-tympanic injection; rat, trans-tympanic 300 μg one ear, suspension in thermoreversible hydrogel, T0 + 1 hour; read-out: Concentration of paliroden (fumarate salt), Plasma, Mean
Structures can show the parent of a compound that is named as a salt.
reported.metric: concentration at 1 h (ng/mL)

INSERT INTO assay_data (compound, reported_metric, recorded_result) VALUES
  ('FC(F)(F)c1cccc(C2=CCN(CCc3ccc(-c4ccccc4)cc3)CC2)c1 [paliroden (fumarate salt)]', 'concentration at 1 h', 1);

// data source = patent US20230390273A1
